biological target: UniProtKB O60285; experiment: Inhibition of recombinant ARK5; details: read-out: IC50 (converted)
Sequence (O60285 whole entry): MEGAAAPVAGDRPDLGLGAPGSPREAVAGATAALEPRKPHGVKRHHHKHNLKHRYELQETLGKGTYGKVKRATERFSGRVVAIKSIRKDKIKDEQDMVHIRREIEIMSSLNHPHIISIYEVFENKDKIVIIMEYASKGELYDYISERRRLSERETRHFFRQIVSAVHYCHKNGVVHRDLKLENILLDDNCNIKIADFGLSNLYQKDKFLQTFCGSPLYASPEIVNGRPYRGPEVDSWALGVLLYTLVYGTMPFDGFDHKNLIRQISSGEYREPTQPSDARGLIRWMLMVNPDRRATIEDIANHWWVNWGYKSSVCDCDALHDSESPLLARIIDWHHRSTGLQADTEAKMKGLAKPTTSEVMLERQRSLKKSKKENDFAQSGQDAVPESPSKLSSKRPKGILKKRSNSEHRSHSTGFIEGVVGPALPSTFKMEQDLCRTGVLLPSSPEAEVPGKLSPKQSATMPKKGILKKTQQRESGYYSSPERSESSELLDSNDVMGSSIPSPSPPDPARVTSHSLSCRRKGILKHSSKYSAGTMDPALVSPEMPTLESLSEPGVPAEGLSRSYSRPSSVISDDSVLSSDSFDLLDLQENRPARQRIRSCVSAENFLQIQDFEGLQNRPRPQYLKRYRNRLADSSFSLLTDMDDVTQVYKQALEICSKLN
1 if IC50 is below 10 µM. 0 if not; exact matches included in 0.

# given-smiles, assay-target, discrete-label
measured = [
    ("COc1cc(O)c(C(=O)O)c(C2=C(C)C[C@@H](O)C2=O)c1", "UniProtKB O60285", 0),
    ("COc1cc(O)c(C(=O)O)c(-c2cc(O)c(O)cc2C)c1", "UniProtKB O60285", 0),
    ("COc1cc(O)c2c(=O)oc3cc(O)cc(C)c3c2c1", "UniProtKB O60285", 0),
]

Prompt: Dear reviewer, please state whether O=C1C[C@H](O)[C@@H]2c3c(ccc(O)c31)-c1ccc(O)c3c1[C@@]2(O)CCC3=O has IC50 strictly beneath 10 µM.
Response: 1

Prompt: Dear reviewer, please state whether Cc1cc(O)c(O)cc1-c1cc(O)cc(O)c1C(=O)O has IC50 strictly beneath 10 µM.
Response: 1

====

molecular target: Vascular endothelial growth factor receptor 2 (Homo sapiens, UniProt P35968); test: Inhibition of recombinant VEGFR2; conditions: read-out: IC50 (converted)
Sequence (P35968 whole entry): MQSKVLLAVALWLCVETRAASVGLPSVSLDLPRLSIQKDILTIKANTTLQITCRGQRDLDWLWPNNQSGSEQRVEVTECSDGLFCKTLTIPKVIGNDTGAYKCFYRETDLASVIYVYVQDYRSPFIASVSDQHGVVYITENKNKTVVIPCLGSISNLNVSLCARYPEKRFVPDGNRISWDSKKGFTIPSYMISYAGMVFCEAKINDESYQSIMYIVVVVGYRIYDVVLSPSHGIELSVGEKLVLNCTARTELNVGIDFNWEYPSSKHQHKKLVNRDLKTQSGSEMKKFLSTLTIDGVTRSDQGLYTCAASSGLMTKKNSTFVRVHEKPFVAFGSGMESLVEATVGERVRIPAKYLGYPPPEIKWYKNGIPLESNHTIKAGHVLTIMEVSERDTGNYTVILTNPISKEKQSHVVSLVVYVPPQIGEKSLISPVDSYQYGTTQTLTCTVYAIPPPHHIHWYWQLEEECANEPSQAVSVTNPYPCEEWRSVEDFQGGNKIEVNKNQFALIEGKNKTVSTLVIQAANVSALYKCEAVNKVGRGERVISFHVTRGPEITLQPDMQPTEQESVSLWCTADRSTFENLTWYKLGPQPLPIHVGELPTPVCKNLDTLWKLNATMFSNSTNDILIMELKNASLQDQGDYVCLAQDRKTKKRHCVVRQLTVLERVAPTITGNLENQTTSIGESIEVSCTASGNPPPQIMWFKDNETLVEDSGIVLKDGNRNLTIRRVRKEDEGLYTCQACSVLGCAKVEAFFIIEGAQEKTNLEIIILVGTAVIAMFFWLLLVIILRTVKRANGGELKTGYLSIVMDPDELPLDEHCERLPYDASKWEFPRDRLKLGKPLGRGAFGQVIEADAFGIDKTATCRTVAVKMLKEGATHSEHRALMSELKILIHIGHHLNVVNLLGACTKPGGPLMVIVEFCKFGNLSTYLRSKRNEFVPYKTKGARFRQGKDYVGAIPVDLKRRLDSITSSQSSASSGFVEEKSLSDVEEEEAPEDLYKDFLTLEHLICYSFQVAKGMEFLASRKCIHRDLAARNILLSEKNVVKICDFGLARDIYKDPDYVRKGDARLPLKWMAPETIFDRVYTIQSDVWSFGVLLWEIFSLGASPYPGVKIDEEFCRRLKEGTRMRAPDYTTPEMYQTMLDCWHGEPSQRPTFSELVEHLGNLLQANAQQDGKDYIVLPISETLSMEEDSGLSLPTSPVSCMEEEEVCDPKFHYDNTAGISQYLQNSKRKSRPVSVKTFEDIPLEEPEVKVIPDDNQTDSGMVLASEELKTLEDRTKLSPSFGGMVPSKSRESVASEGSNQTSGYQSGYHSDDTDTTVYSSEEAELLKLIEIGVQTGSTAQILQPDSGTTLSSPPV
I'd appreciate it if you could supply IC50 values for the items below.
Answers are plain numbers, in µM.

For orientation, consider the following solved cases.
# compound, assay-target, unit, IC50
data = [
    ("COc1cc(O)c2c(=O)oc3cc(O)cc(C)c3c2c1", "Vascular endothelial growth factor receptor 2 (Homo sapiens, UniProt P35968)", "µM", 4.04),
    ("COc1cc(O)c(C(=O)O)c(C2=C(C)C[C@@H](O)C2=O)c1 [ALTERNARIENONIC ACID]", "Vascular endothelial growth factor receptor 2 (Homo sapiens, UniProt P35968)", "µM", 18.3),
    ("COc1cc(O)c(C(=O)O)c(-c2cc(O)c(O)cc2C)c1 [ALTENUSIN]", "Vascular endothelial growth factor receptor 2 (Homo sapiens, UniProt P35968)", "µM", 17.2),
    ("Cc1cc(O)c(O)cc1-c1cc(O)cc(O)c1C(=O)O", "Vascular endothelial growth factor receptor 2 (Homo sapiens, UniProt P35968)", "µM", 13.8),
]

# input for lookup
Documented IC50 of O=C1C[C@H](O)[C@@H]2c3c(ccc(O)c31)-c1ccc(O)c3c1[C@@]2(O)CCC3=O [ALTERTOXIN I] : 3.97

====

target: Vascular endothelial growth factor receptor 3 (Homo sapiens); assay: Inhibition of recombinant VEGFR3
Sequence (P35916 whole entry): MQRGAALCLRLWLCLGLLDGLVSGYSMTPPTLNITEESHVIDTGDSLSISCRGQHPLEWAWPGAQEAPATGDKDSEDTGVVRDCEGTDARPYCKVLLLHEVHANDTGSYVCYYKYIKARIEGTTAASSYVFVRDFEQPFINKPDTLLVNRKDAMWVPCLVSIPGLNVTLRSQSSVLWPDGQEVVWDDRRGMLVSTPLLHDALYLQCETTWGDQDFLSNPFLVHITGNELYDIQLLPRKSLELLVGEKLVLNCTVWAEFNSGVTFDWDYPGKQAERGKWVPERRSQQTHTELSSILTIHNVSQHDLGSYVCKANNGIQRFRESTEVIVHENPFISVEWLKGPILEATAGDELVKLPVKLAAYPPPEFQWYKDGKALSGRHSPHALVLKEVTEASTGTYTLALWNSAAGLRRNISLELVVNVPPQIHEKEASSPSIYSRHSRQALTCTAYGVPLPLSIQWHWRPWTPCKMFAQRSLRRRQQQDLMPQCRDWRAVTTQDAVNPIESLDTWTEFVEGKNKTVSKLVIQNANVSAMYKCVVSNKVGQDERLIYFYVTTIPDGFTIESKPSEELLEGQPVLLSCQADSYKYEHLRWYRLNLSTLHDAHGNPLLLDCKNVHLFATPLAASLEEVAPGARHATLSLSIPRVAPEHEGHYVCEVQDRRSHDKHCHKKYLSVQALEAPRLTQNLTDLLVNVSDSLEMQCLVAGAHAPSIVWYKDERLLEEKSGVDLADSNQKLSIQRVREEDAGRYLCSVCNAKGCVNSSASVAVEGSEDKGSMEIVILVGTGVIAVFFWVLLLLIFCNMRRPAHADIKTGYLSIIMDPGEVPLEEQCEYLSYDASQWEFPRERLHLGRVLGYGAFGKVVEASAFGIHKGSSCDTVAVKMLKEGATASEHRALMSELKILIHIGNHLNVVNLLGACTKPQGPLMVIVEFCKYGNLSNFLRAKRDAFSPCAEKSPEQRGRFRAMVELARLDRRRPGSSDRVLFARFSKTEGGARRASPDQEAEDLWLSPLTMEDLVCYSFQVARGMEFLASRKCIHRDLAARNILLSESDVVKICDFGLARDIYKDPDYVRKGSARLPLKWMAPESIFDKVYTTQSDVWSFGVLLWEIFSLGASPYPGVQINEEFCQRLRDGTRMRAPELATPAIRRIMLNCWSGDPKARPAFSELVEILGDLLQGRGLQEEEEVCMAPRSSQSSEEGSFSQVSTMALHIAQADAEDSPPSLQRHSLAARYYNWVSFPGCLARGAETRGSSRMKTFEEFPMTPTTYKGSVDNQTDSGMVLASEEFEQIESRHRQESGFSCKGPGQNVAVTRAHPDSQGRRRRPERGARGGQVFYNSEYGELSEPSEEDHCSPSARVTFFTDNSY
I'd appreciate it if you could supply IC50 values for the items below.

# compound, IC50
records = [
    ("COc1cc(O)c(C(=O)O)c(-c2cc(O)c(O)cc2C)c1 [ALTENUSIN]", "> 1 ×10⁻⁵ g/ml"),
    ("COc1cc(O)c2c(c1)-c1cc(O)c(O)cc1COC2=O [ALTERLACTONE]", "> 1 ×10⁻⁵ g/ml"),
    ("COc1cc(O)c2c(=O)oc3cc(O)cc(C)c3c2c1", "9.6 ×10⁻⁷ g/ml"),
    ("COc1cc(O)c2c(c1)C1(OC2=O)C(C)=CC(=O)C1O (stereo not given) [TALAROFLAVONE]", "> 1 ×10⁻⁵ g/ml"),
]

Documented IC50 of COc1cc(O)c2c(=O)oc3c(O)c(O)cc(C)c3c2c1 : 3.9 ×10⁻⁷ g/ml
